Measured EC50 by item
ASSAY COMMENT: Inhibition of HCV genotype 1b Con1 NS5A expressed in HuH7 cell infected HCV genotype 2b assessed as decrease in viral replication after 3 days by luciferase reporter gene assay
Response body: numeric value in pM, unit text excluded.

Reference set, count: 4
{"SMILES CODE": "COC(=O)N[C@H](C(=O)N1CCC[C@H]1c1nc2ccc([C@H]3CC[C@H](c4ccc5nc([C@@H]6CCCN6C(=O)[C@@H](NC(=O)OC)C(C)C)[nH]c5c4)N3c3ccc(N4CCC(c5ccccc5)CC4)cc3)cc2[nH]1)C(C)C", "REPORTED METRIC": "EC50", "RECORDED MEASUREMENT": 452}
{"SMILES CODE": "COC(=O)N[C@H](C(=O)N1CCC[C@H]1c1nc2ccc([C@H]3CC[C@H](c4ccc5nc([C@@H]6CCCN6C(=O)[C@@H](NC(=O)OC)C(C)C)[nH]c5c4)N3c3ccc(C(C)(C)C)cc3)cc2[nH]1)C(C)C", "REPORTED METRIC": "EC50", "RECORDED MEASUREMENT": 10}
{"SMILES CODE": "COC(=O)N[C@H](C(=O)N1CCC[C@H]1c1nc2ccc([C@H]3CC[C@H](c4ccc5nc([C@@H]6CCCN6C(=O)[C@@H](NC(=O)OC)C(C)C)[nH]c5c4)N3c3ccc(N4CCOCC4)cc3)cc2[nH]1)C(C)C", "REPORTED METRIC": "EC50", "RECORDED MEASUREMENT": 960}
{"SMILES CODE": "COC(=O)N[C@H](C(=O)N1CCC[C@H]1c1nc2cc(F)c([C@H]3CC[C@H](c4cc5[nH]c([C@@H]6CCCN6C(=O)[C@@H](NC(=O)OC)C6CCOCC6)nc5cc4F)N3c3cc(F)c(N4CCC(c5ccc(F)cc5)CC4)c(F)c3)cc2[nH]1)C1CCOCC1", "REPORTED METRIC": "EC50", "RECORDED MEASUREMENT": 8}

Okay, now this compound:
Task: Tell me its EC50 given `COC(=O)N[C@H](C(=O)N1CCC[C@H]1c1nc2ccc([C@H]3CC[C@H](c4ccc5nc([C@@H]6CCCN6C(=O)[C@@H](NC(=O)OC)C(C)C)[nH]c5c4)N3c3ccc(C4CC4)cc3)cc2[nH]1)C(C)C` as the entry.
Output: 20
